Taken from patent US20260092061A1.

Target: BRD9 (Homo sapiens)
Sequence (Q9H8M2 whole entry): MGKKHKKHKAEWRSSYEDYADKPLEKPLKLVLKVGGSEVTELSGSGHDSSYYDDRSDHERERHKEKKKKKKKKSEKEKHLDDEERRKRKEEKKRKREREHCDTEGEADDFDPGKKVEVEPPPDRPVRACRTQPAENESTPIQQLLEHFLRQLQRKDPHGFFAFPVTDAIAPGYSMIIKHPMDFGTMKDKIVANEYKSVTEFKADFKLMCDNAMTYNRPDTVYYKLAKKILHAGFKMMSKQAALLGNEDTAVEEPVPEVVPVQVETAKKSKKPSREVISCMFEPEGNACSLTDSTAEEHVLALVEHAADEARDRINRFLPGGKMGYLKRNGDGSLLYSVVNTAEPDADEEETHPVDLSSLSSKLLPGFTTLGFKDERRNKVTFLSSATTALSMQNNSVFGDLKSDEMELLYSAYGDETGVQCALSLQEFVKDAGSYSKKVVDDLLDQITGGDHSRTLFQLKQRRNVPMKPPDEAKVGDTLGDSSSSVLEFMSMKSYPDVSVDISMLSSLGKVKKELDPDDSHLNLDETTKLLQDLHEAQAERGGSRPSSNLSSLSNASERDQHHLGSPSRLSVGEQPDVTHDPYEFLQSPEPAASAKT
Assay: Degradation of BRD9 (IF), immunofluorescence in MV4-11 cells, 24 hours (Assay Protocol 2)
Type: cell-based
Design: A suspension of MV4-11 cells (ATCC CRL-9591) was prepared; host or cells: MV4-11
Settings: Assay protocol 2; BRD9 degradation; read-out: DC50
Catalogue of compounds with associated DC50

[
  {
    "compound": "COc1cc(-c2cn(C)c(=O)c(C)c2C)cc(OC)c1CN1CCN(Cc2cccc3c2CCN(C(=O)/C(C#N)=C/C(C)(C)C)C3C)C(=O)C1 (mixture of isomers) [Compound B155]",
    "recorded_metric": "DC50",
    "reported_result": "25 to 1000 nM"
  },
  {
    "compound": "COc1cc(-c2cn(C)c(=O)c(C)c2C)cc(OC)c1CN1[C@H](C)CN(Cc2cccc3c2CCN(C(=O)/C(C#N)=C/C(C)(C)C)C3C)C[C@@H]1C (mixture of isomers) [Compound B114]",
    "recorded_metric": "DC50",
    "reported_result": "1.25 to 10 nM"
  },
  {
    "compound": "CCC[C@H]1c2cccc(CN3CCN(Cc4c(OC)cc(-c5cn(C)c(=O)c(C)c5C)cc4OC)CC34CC4)c2CCN1C(=O)/C(C#N)=C/C(C)(C)C (single isomer, unassigned) [Compound C100]",
    "recorded_metric": "DC50",
    "reported_result": "< 1.25 nM"
  },
  {
    "compound": "COc1cc(-c2cn(C)c(=O)c(C)c2C)cc(OC)c1CN1CCN(Cc2cccc3c2CCN(C(=O)/C(C#N)=C/C(C)(C)C)[C@H]3C(C)C)C2(CC2)C1 (single isomer, unassigned) [Compound C78]",
    "recorded_metric": "DC50",
    "reported_result": "< 1.25 nM"
  },
  {
    "compound": "COc1cc(-c2cn(C)c(=O)c(C)c2C)cc(OC)c1CN1CCN(Cc2cccc3c2CCN(C(=O)/C(C#N)=C/C2(C(F)(F)F)CCC2)C3C)CC1 (mixture of isomers) [Compound B36]",
    "recorded_metric": "DC50",
    "reported_result": "25 to 1000 nM"
  }
]

Enquiry: Please give the measured DC50 for this compound: COc1cc(-c2cn(C)c(=O)c(C)c2C)cc(OC)c1CN1CCC(Cc2cccc3c2CCN(C(=O)/C(C#N)=C/C(C)(C)C)C3C)C(C)(C)C1 (centres unmarked) [Compound C62]
Return: 10 to 25 nM

Enquiry: Please give the measured DC50 for this compound: COc1cc(-c2cn(C)c(=O)c(C)c2C)cc(OC)c1CN1CCN(Cc2cccc3c2CCN(C(=O)/C(C#N)=C\C24CC(C)(C2)C4)C3C)C2(CC2)C1 (mixture of isomers) [Compound B161]
Return: < 1.25 nM

Enquiry: Please give the measured DC50 for this compound: COc1cc(-c2cn(C)c(=O)c(C)c2C)cc(OC)c1CN1CCN(Cc2cccc3c2CCN(C(=O)/C(C#N)=C\C24CC(OC)(C2)C4)C3C)C2(CC2)C1 (mixture of isomers) [Compound B141]
Return: < 1.25 nM

Enquiry: Please give the measured DC50 for this compound: COc1cc(-c2cn(C)c(=O)c(C)c2C)ccc1O[C@H]1CC[C@@H](Nc2cccc3c2CCN(C(=O)/C(C#N)=C/C(C)(C)C)C3C)CC1 (some centres unmarked) [Compound C56]
Return: 25 to 1000 nM

Enquiry: Please give the measured DC50 for this compound: COc1cc(-c2cn(C)c(=O)c(C)c2C)cc(OC)c1CN1CC2(C1)CN(c1cccc(C3CCCN3C(=O)/C(C#N)=C/C(C)(C)C)c1)C2 (mixture of isomers) [Compound B58]
Return: < 1.25 nM
